tested on: Enterococcus avium; assay: Antibacterial activity against Enterococcus avium MB119 after 24 hrs by microdilution assay; format: functional; conditions: MB119, 24 h
Class (by MIC) -- Low (below 100 µM), Mid (100 µM to below 200 µM), High (200 µM or more)

Reference set (4 entries):
CC1=CC(=O)O[C@@H]1[C@@H](O)/C=C(\C)CC[C@@H]1[C@@]2(C)CCC[C@@]3(C)C(=O)O[C@@H](C[C@@]1(C)O)[C@H]23 | Mid
COc1ccc(-c2cc(=O)c3c(OC)c(OC)c(OC)cc3o2)cc1OC | High
CN[C@H](CC(C)C)C(=O)N[C@H]1C(=O)N[C@@H](CC(N)=O)C(=O)N[C@H]2C(=O)N[C@H]3C(=O)N[C@H](C(=O)N[C@H](C(=O)O)c4cc(O)cc(O)c4-c4cc3ccc4O)[C@H](O)c3ccc(c(Cl)c3)Oc3cc2cc(c3O[C@@H]2O[C@H](CO)[C@@H](O)[C@H](O)[C@H]2O[C@H]2C[C@](C)(N)[C@H](O)[C@H](C)O2)Oc2ccc(cc2Cl)[C@H]1O | Low
COc1ccc(-c2cc(=O)c3c(O)c(OC)c(OC)cc3o2)cc1O | Mid

Class for COC1O[C@H]2C[C@@](C)(O)[C@H](CC/C(C)=C/[C@H](O)[C@H]3OC(=O)C=C3C)[C@@]3(C)CCC[C@]1(C)[C@H]23 (stereo partly drawn) ?
Mid

Please classify: COC(=O)[C@]1(C)CCC[C@@]2(C)[C@H]1[C@@H](O)C[C@@](C)(O)[C@@H]2CC/C(C)=C/[C@H](O)[C@H]1OC(=O)C=C1C
Mid

Lab note: sort COC(=O)[C@]1(C)CCC[C@@]2(C)[C@H]1CC[C@@](C)(O)[C@@H]2CC/C(C)=C/[C@H](O)[C@H]1OC(=O)C=C1C into the matching MIC band.
High

Which class is correct for the following compound? C=C[C@@](C)(O)CC[C@H]1C(=C)CC[C@H]2C(C)(C)CCC[C@]12C
Low

Into which bin does this compound go? C=C[C@@](C)(O)CC[C@@H]1[C@@]2(C)CCCC(C)(C)[C@@H]2CC[C@@]1(C)O
High

Which class does COc1ccc(-c2cc(=O)c3c(OC)c(OC)c(OC)cc3o2)cc1 fall in?
High

---

tested on: Enterococcus avium; assay: Antibacterial activity against Enterococcus avium MB119 after 24 hrs by microdilution assay; type: functional; conditions: MB119, 24 h
Readings of MIC for the listed compounds
Entry format: amount then unit.

Example results:
CC1=CC(=O)OC1C/C=C(\C)CC[C@@H]1[C@@]2(C)CCC[C@@](C)(CO)[C@@H]2CC[C@@]1(C)O (some centres undefined) | 158 µM
COc1cc2oc(-c3ccc(O)cc3)cc(=O)c2c(O)c1OC [CIRSIMARITIN] | 204 µM
COC(=O)[C@]1(C)CCC[C@@]2(C)[C@H]1CC[C@@](C)(O)[C@@H]2CC/C(C)=C/C[C@H]1OC(=O)C=C1C | 296 µM

Give recorded MIC. COC1O[C@H]2C[C@@](C)(O)[C@H](CC/C(C)=C/CC3OC(=O)C=C3C)[C@@]3(C)CCC[C@]1(C)[C@H]23 (some centres undefined)
296 µM

---

tested on: Enterococcus durans; experiment: Antibacterial activity against Enterococcus durans MB113 after 24 hrs by microdilution assay; assay type: functional; settings: MB113, 24 h
ENDPOINT_NAME: MIC (µM)
Could you give me the number in µM? Just the number is fine.

COC(=O)[C@]1(C)CCC[C@@]2(C)[C@H]1CC[C@@](C)(O)[C@@H]2CC/C(C)=C/[C@H](O)[C@H]1OC(=O)C=C1C | 286
COc1ccc(-c2cc(=O)c3c(OC)c(OC)c(OC)cc3o2)cc1OC [SINENSETIN] | 344

From here, focus on the item given below.
Provide MIC, system Enterococcus durans, entry COC(=O)[C@]1(C)CCC[C@@]2(C)[C@H]1[C@@H](O)C[C@@](C)(O)[C@@H]2CC/C(C)=C/C[C@H]1OC(=O)C=C1C
286

---

# MIC listing for each entry below
system: Enterococcus faecalis; test: Antibacterial activity against Vancomycin resistant Enterococcus faecalis MB51 after 24 hrs by microdilution assay; format: functional; settings: MB51, 24 h
Could you give me the number in µM? Just the number is fine.

COC(=O)[C@]1(C)CCC[C@@]2(C)[C@H]1CC[C@@](C)(O)[C@@H]2CC/C(C)=C/[C@H](O)[C@H]1OC(=O)C=C1C | 286
CC1=CC(=O)O[C@@H]1C/C=C(\C)CC[C@@H]1[C@@]2(C)CCC[C@@]3(C)C(=O)O[C@@H](C[C@@]1(C)O)[C@H]23 | 154
CC1(C)CCC[C@]2(C)[C@@H](CC[C@](C)(O)[C@H]3CO3)[C@](C)(O)CC[C@@H]12 | 99

Give the value of MIC reported for the following: COc1cc2oc(-c3ccc(O)cc3)cc(=O)c2c(O)c1OC
407

Name the recorded MIC of the molecule listed here: CC1=CC(=O)OC1C/C=C(\C)CC[C@@H]1[C@@]2(C)CCC[C@@](C)(CO)[C@@H]2CC[C@@]1(C)O (stereo not given in full)
158

Specify reported MIC for the molecule shown: COC(=O)[C@]1(C)CCC[C@@]2(C)[C@H]1CC[C@@](C)(O)[C@@H]2CC/C(C)=C/C[C@H]1OC(=O)C=C1C
296

Provide only the value of recorded MIC for COC(=O)[C@]1(C)CCC[C@]2(C)[C@H]3CCC(C)(/C=C/c4occc4C)O[C@]3(C)CC[C@H]21 (stereo not given in full)
309

---

tested on: Enterococcus gallinarum; assay: Antibacterial activity against Vancomycin resistant Enterococcus gallinarum MB111 after 24 hrs by microdilution assay; format: functional; conditions: MB111, 24 h
Here the recorded log10(MIC) is given for each entry.
Scale: log10; quantity: MIC; unit before log: µM

# count of solved cases: 5
COC(=O)[C@]1(C)CCC[C@@]2(C)[C@H]1[C@@H](O)C[C@@](C)(O)[C@@H]2CC/C(C)=C/C[C@H]1OC(=O)C=C1C | 2.46
COC(=O)[C@]1(C)CCC[C@@]2(C)[C@H]1[C@@H](O)C[C@@](C)(O)[C@@H]2CC/C(C)=C/[C@H](O)[C@H]1OC(=O)C=C1C | 2.44
COC(=O)[C@]1(C)CCC[C@@]2(C)[C@H]1CC[C@@](C)(O)[C@@H]2CC/C(C)=C/[C@H](O)[C@H]1OC(=O)C=C1C | 2.16
COc1cc2oc(-c3ccc(O)cc3)cc(=O)c2c(O)c1OC | 2.01
COC1O[C@H]2C[C@@](C)(O)[C@H](CC/C(C)=C/CC3OC(=O)C=C3C)[C@@]3(C)CCC[C@]1(C)[C@H]23 (stereo not given in full) | 2.47

For the compound COC(=O)[C@]1(C)CCC[C@]2(C)[C@H]3CCC(C)(/C=C/c4occc4C)O[C@]3(C)CC[C@H]21 (stereo not given in full) , give its reported log10(MIC).
2.49

Give the value of log10(MIC) reported for the following: C=C[C@@](C)(O)CC[C@H]1C(=C)CC[C@H]2C(C)(C)CCC[C@]12C
1.15

Respond only with log10(MIC) recorded for CN[C@H](CC(C)C)C(=O)N[C@H]1C(=O)N[C@@H](CC(N)=O)C(=O)N[C@H]2C(=O)N[C@H]3C(=O)N[C@H](C(=O)N[C@H](C(=O)O)c4cc(O)cc(O)c4-c4cc3ccc4O)[C@H](O)c3ccc(c(Cl)c3)Oc3cc2cc(c3O[C@@H]2O[C@H](CO)[C@@H](O)[C@H](O)[C@H]2O[C@H]2C[C@](C)(N)[C@H](O)[C@H](C)O2)Oc2ccc(cc2Cl)[C@H]1O
1.04

Read the entry COc1ccc(-c2cc(=O)c3c(OC)c(OC)c(OC)cc3o2)cc1 and write its reported log10(MIC).
2.29

Report measured log10(MIC); entry is CC1(C)CCC[C@]2(C)[C@@H](CC[C@](C)(O)[C@H]3CO3)[C@](C)(O)CC[C@@H]12
2.00

---

Measured MIC, listed per entry for reference.
test system: Enterococcus durans; test: Antibacterial activity against Enterococcus durans MB113 after 24 hrs by microdilution assay; format: functional; conditions: MB113, 24 h
A number alone suffices; assume µM.

Below are worked cases with known answers.
COC(=O)[C@]1(C)CCC[C@@]2(C)[C@H]1CC[C@@](C)(O)[C@@H]2CC/C(C)=C/C[C@H]1OC(=O)C=C1C | 296
C=C[C@@](C)(O)CC[C@@H]1[C@@]2(C)CCCC(C)(C)[C@@H]2CC[C@@]1(C)O | 104
COC1O[C@H]2C[C@@](C)(O)[C@H](CC/C(C)=C/CC3OC(=O)C=C3C)[C@@]3(C)CCC[C@]1(C)[C@H]23 (some centres not stated) | 296
CC1(C)CCC[C@]2(C)[C@@H](CC[C@](C)(O)[C@H]3CO3)[C@](C)(O)CC[C@@H]12 | 198

Consider the record given below.
Tell me MIC reported for C=C[C@@](C)(O)CC[C@H]1C(=C)CC[C@H]2C(C)(C)CCC[C@]12C [MANOOL]
55
